study-target: Protein phosphatase EYA2 (Homo sapiens)
run-description: qHTS for Inhibitors of the Phosphatase Activity of Eya2: Confirmatory Assay for Cherry-picked Compounds; note: nearly all actives have a fitted effect of over 65% in size
test-context: purified EYA2 phosphatase activity, qHTS confirmation; series mostly up to 46.1 µM
In all, about 1,300 compounds went through this assay and about 460 (35%) were called active. Not shown: some 39% with an inconclusive outcome. Calls come from the whole dose curve; as a rule, active = well fitted inhibition curve with a large enough effect; inconclusive = small, poorly fitted or top-dose-only effect; inactive = flat fitted curve, though single readings scatter. The list shows a part of the results.
Log the outcome using a class from yes (1) = active, no (0) = inactive

Req: Assay outcome for "O=C(CN1C(=O)/C(=C/c2ccco2)SC1=S)Nc1ccc(C(=O)O)c(O)c1" : what was it?
Resp: yes (1)

Req: Per the assay record, what outcome was assigned to "O=C(Cc1cccs1)Nc1ccc2c(c1)C(=O)OC2" ?
Resp: no (0)

Req: Answer briefly: the call reported for "COc1ccc2[nH]cc(CCn3ccc(O)c(C/C=C/c4ccccc4)c3=O)c2c1" in this assay.
Resp: yes (1)

Req: Just curious, what result did "O=C(CCS(=O)(=O)c1ccc(Br)cc1)N1CCCCCC1" get here?
Resp: no (0)

Req: Which outcome did this test record for the compound CCC(C)Nc1ccc(NC(C)CC)cc1 (stereo unspecified) ?
Resp: yes (1)

Req: Per the assay record, what outcome was assigned to "COC(=O)c1ccccc1NC(=S)NC(=O)c1ccc(C)cc1" ?
Resp: yes (1)

* * *

study-target: Protein phosphatase EYA2 (Homo sapiens) (UniProt O00167)
Sequence (O00167 whole entry, looked up): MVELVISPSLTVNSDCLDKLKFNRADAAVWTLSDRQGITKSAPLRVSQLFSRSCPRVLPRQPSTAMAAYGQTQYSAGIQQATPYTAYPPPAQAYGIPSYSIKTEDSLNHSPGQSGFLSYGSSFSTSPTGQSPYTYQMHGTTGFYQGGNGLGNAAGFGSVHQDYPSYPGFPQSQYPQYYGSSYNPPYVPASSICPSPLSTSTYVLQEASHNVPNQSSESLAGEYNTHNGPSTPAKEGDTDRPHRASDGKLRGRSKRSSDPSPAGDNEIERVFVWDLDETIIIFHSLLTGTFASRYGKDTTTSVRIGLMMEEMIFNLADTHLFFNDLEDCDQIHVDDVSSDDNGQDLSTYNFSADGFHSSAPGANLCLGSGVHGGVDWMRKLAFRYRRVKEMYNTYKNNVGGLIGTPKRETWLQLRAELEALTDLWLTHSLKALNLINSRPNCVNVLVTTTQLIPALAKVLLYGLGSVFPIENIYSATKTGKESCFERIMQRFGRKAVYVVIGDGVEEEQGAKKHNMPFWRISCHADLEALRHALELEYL
run-description: qHTS for Inhibitors of the Phosphatase Activity of Eya2: Confirmatory Assay for Cherry-picked Compounds; note: nearly all actives have a fitted effect of over 65% in size
test-context: purified EYA2 phosphatase activity, qHTS confirmation; series mostly up to 46.1 µM
The campaign covered roughly 1,300 compounds. About 460 (35%) were called active. Another 39% or so got no clear call; they are omitted. Calls come from the whole dose curve; as a rule, active = well fitted inhibition curve with a large enough effect; inconclusive = small, poorly fitted or top-dose-only effect; inactive = flat fitted curve, though single readings scatter. The list shows a part of the results.
Form entry, call: pick from active, inactive

Worked set:
{"compound": "COc1cc2c(cc1OC)-c1cc(Nc3ccc(F)cc3)nc(=O)n1CC2", "study-target": "Protein phosphatase EYA2 (Homo sapiens) (UniProt O00167)", "assigned-class": "active"}
{"compound": "COc1cc(N)c(Cl)cc1C(=O)N[C@H]1CCN(CCCOc2ccc(F)cc2)C[C@H]1OC", "study-target": "Protein phosphatase EYA2 (Homo sapiens) (UniProt O00167)", "assigned-class": "inactive"}
{"compound": "O=C(NN1C(=O)/C(=C\\c2ccc(O)c([N+](=O)[O-])c2)SC1=S)c1ccccc1Cl", "study-target": "Protein phosphatase EYA2 (Homo sapiens) (UniProt O00167)", "assigned-class": "active"}
{"compound": "CC1C(c2ccccc2)=Nn2c(=O)n(-c3ccccc3)c(=O)n21 (centres undefined)", "study-target": "Protein phosphatase EYA2 (Homo sapiens) (UniProt O00167)", "assigned-class": "inactive"}
{"compound": "COc1ccc(Nc2cc3n(c(=O)n2)CCc2cc(OC)c(OC)cc2-3)c(C)c1", "study-target": "Protein phosphatase EYA2 (Homo sapiens) (UniProt O00167)", "assigned-class": "active"}
{"compound": "O=C(CCN1C(=O)/C(=C\\C=C\\c2ccccc2)SC1=S)Nc1ccc(C(=O)O)cc1", "study-target": "Protein phosphatase EYA2 (Homo sapiens) (UniProt O00167)", "assigned-class": "inactive"}
{"compound": "CCOc1ccc(Nc2cc3n(c(=O)n2)CCc2cc(OC)c(OC)cc2-3)cc1", "study-target": "Protein phosphatase EYA2 (Homo sapiens) (UniProt O00167)", "assigned-class": "active"}
{"compound": "CCOc1ccc(/C=C2\\SC(=S)N(CCC(=O)Nc3ccc(C(=O)O)cc3)C2=O)cc1", "study-target": "Protein phosphatase EYA2 (Homo sapiens) (UniProt O00167)", "assigned-class": "active"}

Now for another entry.
Req: For this compound, state the assay outcome: "CCOc1ccc2ccccc2c1C(=O)N[C@@H]1C(=O)N2[C@@H]1SC(C)(C)[C@@H]2C(=O)O"
Resp: inactive
